# Tested on: HCC-2998 colon
# experiment.description: NCI tumour cell line growth inhibition, 48 h
Recorded TGI for the following compounds
The reply should contain only the number, in µM.

test.smiles | TGI, µM
CC(=O)N(C)c1ccc(Nc2cc(C)[nH]c3ccc4ncnc4c23)cc1 | 22.3
COc1cc(C#CC(=O)OC/C=C/c2ccc3c(c2)OCO3)cc(OC)c1OC | 49.2
CC(=O)c1cccc(NC(=O)C(=O)NNc2n[nH]c(=S)n2N)c1 | 27.5

Now look at this one.
I am curious: what TGI value has been reported for `COc1cc2cc3c4c(cc(OC)c(OC)c4c2cc1OC)CCN3C(=O)OCCN1CCNCC1` ?
29.8

* * *

# System: BT-549 breast
# experiment.description: NCI tumour cell line growth inhibition, 48 h
property: TGI

Example compounds with recorded TGI:
compound | TGI
CCOC(=O)C1=C(C)N(Cc2ccc(Cl)cc2Cl)C2(O)C=CC(=O)C3C(=O)N(c4ccccc4)C(=O)C132 (stereo unspecified) | 3.27 µM
O=C(Cc1ccc(/C=C/C(=O)c2ncc[nH]2)cc1)Nc1cc(F)c(F)c(F)c1 | 6.74 µM
CCOc1cc2c(OCc3ccccc3)cc3c4cc(OC)c(OC)cc4c[n+](C)c3c2cc1OC | 4.72 µM
CN=c1nc2sc3c(c2c(NC(=S)NC)s1)CCCC3 | > 100 µM

// map `C=C1C(=O)O[C@@H]2C[C@@H]1CC/C(C)=C/CC/C(C)=C/CC[C@@]2(C)O` to recorded TGI (system: BT-549 breast)
40.4 µM

Write down the reported TGI of `Nc1ccc(-c2nc3cc(F)ccc3s2)cc1Cl` , test system: BT-549 breast.
> 63.2 µM

Identify the measured TGI of CN(Cc1cnc2nc(N)nc(N)c2n1)c1ccc(C(=O)NC(CCC(=O)NCCC(P(=O)(O)O)P(=O)(O)O)C(=O)O)cc1 (stereo unspecified) for BT-549 breast.
> 100 µM

Hi! What's the reported TGI for OCC1OC(c2cccc3cc(O)c(O)cc23)CC1O (stereo unspecified) on BT-549 breast?
> 100 µM

Write down the reported TGI of `O=C1NC(NNc2ccccc2)=N/C1=C\c1ccccc1O` , test system: BT-549 breast.
> 100 µM

Quick check: TGI on BT-549 breast, item `Nc1ccc(Oc2ccc(C34CC5CC6C3CC3CC4C(C5)C6(c4ccc(Oc5ccc(N)cc5)cc4)C3)cc2)cc1` ?
> 82.8 µM

Any idea what TGI came out for `N=C1/C(=C/c2ccc(F)cc2)C(=O)N=C2SC=NN12` on BT-549 breast?
> 100 µM

* * *

# System: NCI/ADR-RES ovarian
# experiment.description: NCI tumour cell line growth inhibition, 48 h; in the data active = GI50 below about 0.43 µM; inactive = the rest
Select the matching outcome among active, inactive

molecule | assigned.class
CCN(CC)c1ccc2c(c1)OC(N)=C(C#N)C2c1cc(OC)c2c(c1)OCO2 (stereo not given) | active

Call for entry `C=C1C(=O)O[C@@H]2C[C@@H]1CC/C(C)=C/CC/C(C)=C/CC[C@@]2(C)O` :
inactive

Tell me the recorded outcome of this test for `O=C(CNc1ccc(Cl)cc1)Nc1ccc(-c2nc3ccccc3s2)cc1` .
inactive

How did this test come out for CCCCCCCCCCCCOC1C(C(COC2OC(C3COC(C)(C)O3)C3OC(C)(C)OC23)NC(=O)Nc2ccc(C(=O)O)cc2)OC2OC(C)(C)OC21 (stereo not given) ?
inactive

// return assay outcome for CC(C)=CCNc1ncnc2c1ncn2C1OC(CO)C(O)C1O (stereo not given)
inactive

* * *

# Tested on: RXF 393 renal
# experiment.description: NCI tumour cell line growth inhibition, 48 h
property: log10 of TGI (log10 of the value in µM)
Recall that a logarithmic scale is used here: each number is log10 of TGI in µM.

Past entries and their recorded results:
molecule | test.target | result.value
Cn1nc(N)c2cc([C@@H]3Nc4ccc5[nH]ncc5c4[C@H]4C5CCC(C5)[C@@H]34)ccc21 (stereo partly specified) | RXF 393 renal | -0.08
O=C(Cc1ccc(/C=C/C(=O)c2ncc[nH]2)cc1)Nc1cc(F)c(F)c(F)c1 | RXF 393 renal | 0.82
O=C(NCC(=O)N1CCCC1C(=O)OC(=O)C1CCCN1C(=O)CNC(=O)OCc1ccccc1)OCc1ccccc1 (stereo unspecified) | RXF 393 renal | 1.81
Cn1c2ccccc2c2c3c(c4c5cc(Br)ccc5n(C)c4c21)C(=O)N(O)C3=O | RXF 393 renal | -0.15
N#Cc1c(-c2ccc(Cl)cc2)c2c([nH]c1=O)-c1ccccc1SC2 | RXF 393 renal | 1.89
[Cl][Hg][c]1cc(Br)cc(Br)c1 | RXF 393 renal | 0.45
Cc1cc([N+](=O)[O-])ccc1Nc1cccc(Cl)c1C | RXF 393 renal | 1.54
COc1ccc(C2COc3cc(OC(C)=O)c(OC(C)=O)cc3C2)cc1 (stereo unspecified) | RXF 393 renal | 1.53
O=c1cnn(C/C=C/CBr)c(=O)[nH]1 | RXF 393 renal | 1.50
NNC(=S)N/N=C(\CC1OC(=O)c2ccccc21)c1ccccc1O (stereo unspecified) | RXF 393 renal | 1.89

Recorded log10 of TGI of `COC(=O)C(=Cc1cc(OC)ccc1OC)C(=O)OC` , please.
1.50

* * *

# Tested on: RXF 393 renal
# experiment.description: NCI tumour cell line growth inhibition, 48 h
property: GI50

Before answering, review these 3 worked examples.
test.smiles | test.target | GI50
Cn1c2ccccc2c2c3c(c4c5cc(Br)ccc5n(C)c4c21)C(=O)N(O)C3=O | RXF 393 renal | 0.217 µM
COc1ccc(CN2C(=O)/C(=C\C(=O)c3ccc(OCCN4CCCCC4)cc3)c3ccccc32)cc1 | RXF 393 renal | 1.69 µM
COc1ccc(-n2cc(-c3cc(OC)c(OC)c(OC)c3)c(C(=O)C(F)(F)F)c2C)cc1 | RXF 393 renal | > 100 µM

Returns the measured GI50 for the input compound. Input: `COc1cnc2c(c1)C(=O)c1c-2n(CCCNC(C)C)c(=O)c2cc(Cl)ccc12`
0.568 µM

Record request: GI50 value, item `C=C(CNCc1ccccc1)c1ccc(C(=O)Nc2ccccc2N)cc1`
1.87 µM

What value of measured GI50 is listed for `CCN(CC)CCOc1ccc(-c2nc3cc(Cl)ccc3s2)cc1` ?
1.01 µM

* * *

# Test system: OVCAR-3 ovarian
# experiment.description: NCI tumour cell line growth inhibition, 48 h; in the data active = GI50 below about 0.43 µM; inactive = the rest
In this exercise, the only acceptable responses are active, inactive

Example results:
compound | assigned.class
Clc1nc2ccccc2nc1CI | inactive
COc1cc(N(CCC#N)CCC#N)ccc1/C(N=Nc1ccc([N+](=O)[O-])cc1)=N/NC(=O)c1cc(Br)ccc1O | inactive
C=CCCCCC/C=C\[C@H](O)C#CC#C/C=C/CO | inactive

What did the test return for `O=C(Nc1nc2ccc(C(F)(F)F)cc2s1)c1cc(Cl)ccc1O` ?
active

How did this test come out for CCN(CC)c1ccc2c(c1)OC(N)=C(C#N)C2c1cc(OC)c2c(c1)OCO2 (stereo not drawn) ?
active

GET /call?item= CC(C)=CCNc1ncnc2c1ncn2C1OC(CO)C(O)C1O (stereo not drawn) returns the recorded outcome of this test.
active

So what was the verdict on `COc1ccc(CN2C(=O)/C(=C\C(=O)c3ccc(OCCN4CCCCC4)cc3)c3ccccc32)cc1` in this test?
inactive

I would be grateful if you could indicate the recorded call for `CCCCCCNC(=O)c1cc(NCc2cc(O)ccc2O)ccc1O` .
inactive

* * *

# Test system: NCI-H522 lung
# experiment.description: NCI tumour cell line growth inhibition, 48 h
Each entry below lists one item and its recorded TGI value.
Give your result in µM as a bare value.

compound | result.value
CC(C)=CC/C=C(/C)[C@H]1CC[C@]2(C)[C@@H]1CC[C@@H]1[C@@]3(C)CCCNC(C)(C)[C@@H]3CC[C@]12C | 4.48
COc1ccc(N2C(=O)CC(C3CC(C(C)(C)C)CCC3=O)C2=O)cc1 (centres undefined) | 32.9
CCn1c(-c2nonc2N)nc2c(C#CC(C)(C)O)nc(OC[C@H](N)c3ccccc3)cc21 | 8.63
CCCCCCNC(=O)c1cc(NCc2cc(O)ccc2O)ccc1O | 0.752
N#Cc1c(NN)n(C2OC(CO)C(O)C2O)c2ncnc(N)c12 (centres undefined) | 0.469

Quick check: TGI of `C=CCCCCC/C=C\[C@H](O)C#CC#C/C=C/CO` ?
45.4

* * *

TGI values, listed per item
# Test system: NCI-H522 lung
# experiment.description: NCI tumour cell line growth inhibition, 48 h

These solved cases illustrate the format of a correct answer.
molecule | result.value
O=C(NCC(=O)N1CCCC1C(=O)OC(=O)C1CCCN1C(=O)CNC(=O)OCc1ccccc1)OCc1ccccc1 (configuration not stated) | > 100 µM
O=S1(=O)C[C@H](O)[C@H](O)CS1 | > 100 µM
O=C(Nc1ccc(Cl)cc1F)c1ccccc1O | 30 µM

Form field: reported TGI of CC(C)(Cl)C(Br)CCC(C)(Cl)C(Br)CBr (configuration not stated)
35.8 µM

TGI for `COc1cc(C(=O)n2c3ccc(Br)cc3c3nc4ccccc4nc32)cc(OC)c1OC` ?
> 100 µM

Would you mind telling me what TGI value was observed for `CN(CC(=O)O)c1ncc2c(n1)-c1ccccc1SC2` ?
> 100 µM

// lookup TGI for COC1(OC)CC2C(=O)N(Cc3ccccc3)C1C(S(=O)(=O)c1ccccc1)C2S(=O)(=O)c1ccccc1 (configuration not stated)
5.12 µM

Any idea what TGI was measured for `Nc1ccc(Oc2ccc(C34CC5CC6C3CC3CC4C(C5)C6(c4ccc(Oc5ccc(N)cc5)cc4)C3)cc2)cc1` ?
47.7 µM

So what's the measured TGI for this one? OC1[C@@H]2[C@@H](O)[C@H](O)[C@@H](O)N2C[C@@H]1O (some centres not stated)
> 100 µM

Consider the molecule `Cc1cc(N)c(C)c2c1[nH]c1ccc(O)cc12` and give its measured TGI.
41.1 µM

Item under review: `N#Cc1nc2ccccc2nc1N1CCN(c2ccc([N+](=O)[O-])cc2)CC1` . Reported TGI?
> 100 µM

Which value of TGI has been reported for `CC(C)C(=O)[C@@]1(C)SC[C@H]2CCN=C21` in the records?
> 100 µM
